# Tested on: THP-1
# assay.protocol: Cytotoxicity against human THP1 cells after 72 hrs by MTT assay
# Type: functional, cell-based
# assay.context: THP-1, 72 h
Label y when IC50 is strictly below 5 µM; at or above that, label n.

| compound | discrete.label |
| --- | --- |
| C=C1C2=C(C(=O)N1OC)[C@H](OC(=O)CSc1nc3ccccc3[nH]1)[C@@](C)(O)[C@H](CCCCC)O2 | n |

Ask: For this compound, is IC50 lower than 5 µM? C=C1C2=C(C(=O)N1OC)[C@@H](F)[C@@](C)(O)[C@H](CCCCC)O2
Reply: n

Ask: Is the reported IC50 for C=C1C2=C(C(=O)N1OC)[C@H](OC(=O)CSc1nc3ccccc3o1)[C@@](C)(O)[C@H](CCCCC)O2 strictly below 5 µM?
Reply: y

Ask: Does C=C1C2=C(C(=O)N1OC)[C@H](OC(=O)CSc1nc3ccccc3s1)[C@@](C)(O)[C@H](CCCCC)O2 have IC50 strictly under 5 µM?
Reply: y

###

# Test system: HCT-116
# assay.protocol: Cytotoxicity against human HCT116 cells after 72 hrs by MTT assay
# Format: functional, cell-based
# assay.context: HCT-116, 72 h
observable: IC50 (µM)
Just the number in µM, nothing appended.

Answered examples (3):
| compound | IC50 (µM) |
| --- | --- |
| COc1cc([C@@H]2c3cc4c(cc3[C@@H](O[C@@H]3O[C@@H]5CO[C@@H](C)O[C@H]5[C@H](O)[C@H]3O)[C@H]3COC(=O)[C@H]23)OCO4)cc(OC)c1O [ETOPOSIDE] | 22 |
| C=C1C2=C(C(=O)N1OC)[C@@H](F)[C@@](C)(O)[C@H](CCCCC)O2 | 31 |
| C=C1C2=C(C(=O)N1OC)[C@H](OC(=O)CCl)[C@@](C)(O)[C@H](CCCCC)O2 | 2.4 |

Ask: # IC50 lookup, item C=C1C2=C(C(=O)N1OC)[C@H](O)[C@@](C)(O)[C@H](CCCCC)O2
Reply: 44

Ask: Report IC50 for C=C1C2=C(C(=O)N1OC)[C@H](OC(=O)CSc1nc3ccccc3o1)[C@@](C)(O)[C@H](CCCCC)O2 please.
Reply: 4.9

Ask: Which measured IC50 value corresponds to C=C1C2=C(C(=O)N1OC)[C@H](OC(=O)CSc1nc3ccccc3s1)[C@@](C)(O)[C@H](CCCCC)O2 ?
Reply: 4.7

Ask: Which IC50 is reported for this compound? C=C1C2=C(C(=O)N1OC)[C@H](OC(=O)CCCCCl)[C@@](C)(O)[C@H](CCCCC)O2
Reply: 11

Ask: # input compound: C=C1C2=C(C(=O)N1OC)[C@H](OC(=O)CSc1nc3ccccc3[nH]1)[C@@](C)(O)[C@H](CCCCC)O2 ; wanted: its IC50
Reply: 8.2

###

# Test system: PC-3
# assay.protocol: Cytotoxicity against human PC3 cells after 72 hrs by MTT assay
# Type: functional, cell-based
# assay.context: PC-3, 72 h
We begin with a simple list: items and their reported pIC50.
Scale: negative log10 of molar concentration, which is what pIC50 denotes.

| molecule | obs.value |
| --- | --- |
| C=C1C2=C(C(=O)N1OC)[C@H](OC(=O)CSc1nc3ccccc3[nH]1)[C@@](C)(O)[C@H](CCCCC)O2 | 5.19 |

Ask: Looking for the measured pIC50 of C=C1C2=C(C(=O)N1OC)[C@H](OC(=O)CSc1nc3ccccc3s1)[C@@](C)(O)[C@H](CCCCC)O2 , can you help?
Reply: 5.30

Ask: Quick check: pIC50 of C=C1C2=C(C(=O)N1OC)[C@H](OC(=O)CSc1nc3ccccc3o1)[C@@](C)(O)[C@H](CCCCC)O2 ?
Reply: 5.24
